Below, each entry is listed with its recorded IC50.
# Test system: TLR2 induced IL-6 in peripheral blood mononuclear cells (PBMCs)
# TEST_DETAILS: PBMC TLR2 Induced IL-6 Assay
# Type: cell-based, human
# CONDITION_CONTEXT: Homo sapiens, PBMC, 5 h, human PBMCs, 10 μg/ml lipoteichoic acid for 5 hours, IL-6 by ELISA; value without asterisk; read-out: Cell IC50
Express it in nM; write the number only.

molecule=CC(C)(O)[C@H](F)CNC(=O)c1cnc(Nc2ccc3ncsc3c2)cc1NC1CC1 target_or_system="TLR2 induced IL-6 in peripheral blood mononuclear cells (PBMCs)" value=228
molecule=CNC(=O)c1cnc(Nc2ccc3c(c2)C(F)(F)C(=O)N3)cc1NC1CCCC1 target_or_system="TLR2 induced IL-6 in peripheral blood mononuclear cells (PBMCs)" value=612
molecule=CC(C)(O)[C@H](F)CNC(=O)c1cnc(Nc2ccn3nccc3n2)cc1NC1CC1 target_or_system="TLR2 induced IL-6 in peripheral blood mononuclear cells (PBMCs)" value=346
molecule="CC(C)(O)[C@H](F)CNC(=O)c1cnc(Nc2ccc3ncccc3c2)cc1NC1CCCC1(F)F (stereo partly shown)" target_or_system="TLR2 induced IL-6 in peripheral blood mononuclear cells (PBMCs)" value=73
molecule=CC(C)Nc1cc(Nc2ccn3ncc(C#N)c3n2)ncc1C(=O)NC[C@@H](F)C(C)(C)O target_or_system="TLR2 induced IL-6 in peripheral blood mononuclear cells (PBMCs)" value=126

Form: item CC(C)NC(=O)N[C@H](C)CCNC(=O)c1cnc(Nc2ccc3ncsc3c2)cc1NC(C)C ; test system TLR2 induced IL-6 in peripheral blood mononuclear cells (PBMCs); IC50: 191

Form: item Cc1cc2nc(Nc3cc(NC4CCC(F)C4)c(C(=O)NC[C@@H](F)C(C)(C)O)cn3)ccn2n1 (stereo partly shown) [Example 267] ; test system TLR2 induced IL-6 in peripheral blood mononuclear cells (PBMCs); IC50: 468

Form: item CC(C)(O)[C@H](F)CNC(=O)c1cnc(Nc2ccc3ncsc3c2)cc1NCC(F)(F)C(C)(C)O ; test system TLR2 induced IL-6 in peripheral blood mononuclear cells (PBMCs); IC50: 174

Form: item CC(C)(O)[C@H](F)CNC(=O)c1cnc(Nc2ccc3ncsc3c2)cc1NC1CCCCCC1 ; test system TLR2 induced IL-6 in peripheral blood mononuclear cells (PBMCs); IC50: 271

Form: item CC(C)CNc1cc(Nc2ccc3ncsc3c2)ncc1C(=O)NC[C@@H](F)C(C)(C)O ; test system TLR2 induced IL-6 in peripheral blood mononuclear cells (PBMCs); IC50: 48

Form: item CC(C)Nc1cc(Nc2ccc3ncsc3c2)ncc1C(=O)NCC[C@@H](C)NC(=O)CC1CCOCC1 ; test system TLR2 induced IL-6 in peripheral blood mononuclear cells (PBMCs); IC50: 300

Form: item CC(C)Nc1cc(Nc2ccc3ncsc3c2)ncc1C(=O)N[C@H]1CC[C@H](C(=O)NC2(C#N)CC2)C1 ; test system TLR2 induced IL-6 in peripheral blood mononuclear cells (PBMCs); IC50: 692

Form: item CC(C)(O)[C@H](F)CNC(=O)c1cnc(Nc2nc3ccnn3cc2F)cc1NC1CCOCC1F (stereo partly shown) ; test system TLR2 induced IL-6 in peripheral blood mononuclear cells (PBMCs); IC50: 346
